Test system: MDAMB231
PROCEDURE_TEXT: In vitro colorimetric cell death assay (MTT)
Type: cell-based
TEST_CONDITIONS: 48 hours
ASSAY_ENDPOINT: IC50 (µM)

>>> df
                                   compound  assay_endpoint  unit_spec  observed
0  N.N.[Cl][Pt][Cl] [Cisplatin, cisplatin, reference compound]            IC50         µM      82.3

---

Tested on: HeLa
PROCEDURE_TEXT: In vitro soft agar colony forming growth assay
Assay type: cell-based
TEST_CONDITIONS: soft agar, one week, read-out: IC 50
ASSAY_ENDPOINT: IC50 (µM)

                                   compound  assay_endpoint  unit_spec  observed
0  N.N.[Cl][Pt][Cl] [Cisplatin, cisplatin, reference compound]            IC50         µM      39.4

---

Test system: T47D
PROCEDURE_TEXT: In vitro colorimetric cell death assay (MTT)
Type: cell-based
TEST_CONDITIONS: Homo sapiens, 48 hours
Protocol: It's an in vitro colorimetric assay for assessing cell viability where the cells are grown in Two-dimensional surface. An exemplary procedure for the assay follows. Cancer cells and normal cells were plated in a 96 well plate as per predetermined plating efficiency. […]
ASSAY_ENDPOINT: IC50 (µM)

In [3]: df
Out[3]:
                                   molecule  assay_endpoint  unit_spec  observed
0  COc1cc2c(OC3OCC(O)C(O)C3O)c3c(c(-c4ccc5c(c4)OCO5)c2cc1OC)C(=O)OC3 (stereo not shown) [I-3]            IC50         µM      21.1
